Data provenance: PubChem BioAssay

Quick reference: differential viability (reversal) of the listed items.
Test: reversal of MRP1-mediated doxorubicin resistance, pilot screen, H69AR cells, doxorubicin co-treatment (AID 601)
Conditions: H69AR cells + 2 uM doxorubicin, CellTiter-Glo, 72 h; at 10 µM; active compounds read high
Active and inactive are the calls of the source.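 Rule for the calls: active = viability loss from added drug above about 55%, and viability with drug at most 40%, in both replicates (limit read from the data, passing the limit was not always enough); inconclusive = both conditions met in only one replicate; inactive = neither replicate meets both conditions.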

compound | readout label | experimental value
c1ccc(CC2CCN(C(c3cccs3)c3nnnn3C3CCCC3)CC2)cc1 (stereo not given) | differential viability (reversal) | -0.24% (inactive)
Cc1ccc(C)c(-c2nc3cc(N)ccc3o2)c1 | differential viability (reversal) | 8.46% (inactive)

Query: Retrieve differential viability (reversal) measured for COc1ccc(C)cc1-n1nnnc1SCC(=O)Nc1cc(C)on1 and print it.
Result: 4.68% (inactive)

Query: Retrieve differential viability (reversal) measured for COc1ccc(C(=O)N(CCCO)Cc2cc3c(C)ccc(C)c3[nH]c2=O)cc1OC and print it.
Result: 12.2% (inactive)

Query: Retrieve differential viability (reversal) measured for COc1ccc(C2c3c(-c4ccccc4O)n[nH]c3C(=O)N2CCc2ccc(OC)c(OC)c2)cc1 (stereo not given) and print it.
Result: 57.9% (active)
